# Tested on: CASKI
# PROTOCOL_NOTES: Confirmatory qHTS for gynecologic anti-cancer compounds from libraries of approved drugs and bioactive compounds; further: nearly all actives have a fitted effect of over 55% in size; further: potency means the concentration at half of the fitted maximal effect
# MEASUREMENT_CONDITIONS: gynecologic cancer cell panel viability, ATPlite luminescence, 48 h; series mostly up to 57.6 µM
Inconclusive results are not listed. Calls of active or inactive are those of the source. The call rests on the fitted dose curve; in most records, active means well fitted cell-killing curve with a large enough effect; inconclusive means small, poorly fitted or top-dose-only effect, or effect the other way; inactive means no such curve, though single readings can be large or run the other way.

{"COMPOUND": "c1cc(N[C@@H]2CCNC2)nc(-c2cnc3ccc(-c4cn[nH]c4)cn23)c1", "Potency": "27.3 µM (active)"}
{"COMPOUND": "FC(F)(F)c1ccc(/C=C/c2nc(COc3ccc(CCCCn4ccnn4)cc3)co2)cc1", "Potency": "0.137 µM (active)"}
{"COMPOUND": "COc1cc(N2CCC(N(C)C)CC2)ccc1Nc1ncc(Cl)c(Nc2ccccc2P(C)(C)=O)n1", "Potency": "7.69 µM (active)"}
{"COMPOUND": "COc1cccc2c1C(=O)c1c(O)c3c(c(O)c1C2=O)C[C@@](O)(C(=O)CO)C[C@@H]3O[C@H]1C[C@H](N)[C@H](O[C@@H]2CCCCO2)[C@H](C)O1", "Potency": "17.2 µM (active)"}
{"COMPOUND": "CN1CCN(Cc2ccc(NC(=O)Nc3ccc(Oc4cc(NC(=O)C5CC5)ncn4)cc3)cc2C(F)(F)F)CC1", "Potency": "0.611 µM (active)"}
{"COMPOUND": "NC(=O)Nc1cc(-c2cccc(F)c2)sc1C(=O)NC1CCCNC1 (stereo not drawn)", "Potency": "2.17 µM (active)"}
{"COMPOUND": "Cc1nc(N)ncc1-c1nc(N2CCOCC2)c2sc(C(C)(C)O)cc2n1", "Potency": "0.769 µM (active)"}
{"COMPOUND": "NCCOc1cc(C(=O)Nc2cc(OCCN)c3ccccc3n2)nc(C(=O)Nc2cc(OCCN)c3ccccc3n2)c1", "Potency": "30.6 µM (active)"}
{"COMPOUND": "CC[C@@]1(O)C(=O)OCc2c1cc1n(c2=O)Cc2cc3c(CN(C)C)c(O)ccc3nc2-1", "Potency": "1.09 µM (active)"}
{"COMPOUND": "CC(C)CC(=O)Nc1n[nH]c2c1CN(C(=O)C1CCN(C)CC1)C2(C)C", "Potency": "3.43 µM (active)"}
{"COMPOUND": "CN[C@@H](C)C(=O)N[C@H]1CN(C(=O)CC(C)C)CC[C@H]2CC[C@@H](C(=O)NC(c3ccccc3)c3ccccc3)N2C1=O", "Potency": "inactive"}
{"COMPOUND": "Cn1cnc([N+](=O)[O-])c1Sc1ncnc2nc[nH]c12", "Potency": "6.85 µM (active)"}
{"COMPOUND": "Oc1cn2c(n1)Nc1ccc(Cl)c(Cl)c1C2", "Potency": "inactive"}
{"COMPOUND": "Cc1[nH]c2ccccc2c1CCNCc1ccc(/C=C/C(=O)NO)cc1", "Potency": "0.611 µM (active)"}
{"COMPOUND": "Nc1nccc(Oc2ccc(NC(=O)c3c[nH]cc(-c4ccc(F)cc4)c3=O)cc2F)c1Cl", "Potency": "12.2 µM (active)"}
{"COMPOUND": "COc1cc(F)c(F)c(Nc2ccc(I)cc2F)c1NS(=O)(=O)C1(CC(O)CO)CC1 (stereo not drawn)", "Potency": "inactive"}
{"COMPOUND": "Cc1c(NC(=O)OCC2COCCN2)cn2ncnc(Nc3ccc4c(cnn4Cc4cccc(F)c4)c3)c12 (stereo not drawn)", "Potency": "19.3 µM (active)"}
{"COMPOUND": "CC(=O)OC12COC1CC(O)C1(C)C(=O)C(O)C3=C(C)C(OC(=O)C(O)C(NC(=O)OC(C)(C)C)c4ccccc4)CC(O)(C(OC(=O)c4ccccc4)C21)C3(C)C (stereo not drawn)", "Potency": "inactive"}

Reference for the values: PubChem BioAssay AID1345085
